System: 282377-053-R-J1-PDC complex spheroid viability;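 note: spheroids exposed to compounds for seven days; 100% = DMSO vehicle control viability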
Assay: Anticancer human tumor 282377-053-R-J1-PDC patient-derived colon adenocarcinoma cell line growth inhibition [POLQ]
Details: second compound 0.0316 µM; first compound 0.1 µM; hits give low values
Could you please report measured viability, T/C for the items listed next?
Numbers only, in %.

Provide reported viability, T/C for each item, in the same order as listed.
1. COc1cccc(OCCCN)c1-c1cc(Nc2cnc(C#N)cn2)n[nH]1 + COC1C(OC(N)=O)C(O)C(Oc2ccc3c(O)c(NC(=O)c4ccc(O)c(CC=C(C)C)c4)c(=O)oc3c2C)OC1(C)C
2. Cn1ncnc1[C@H]1c2n[nH]c(=O)c3cc(F)cc(c23)N[C@@H]1c1ccc(F)cc1 + COC1C(OC(N)=O)C(O)C(Oc2ccc3c(O)c(NC(=O)c4ccc(O)c(CC=C(C)C)c4)c(=O)oc3c2C)OC1(C)C
3. CCc1cc2c(N3CCc4c(cc(Cn5ccnc5)cc4-c4cn(C)nc4C(F)(F)F)C3=O)ccnc2c(OC)n1 + Nc1ccc(C#CCN(C(=O)Cc2ncc(C(F)(F)F)cc2C(F)(F)F)c2ccc(F)cc2)nn1
4. COc1ccc([C@@H](O)c2cc(-c3ncnc4cc(N5CCOCC5)ccc34)c(F)cc2Cl)nn1 + COC1C(OC(N)=O)C(O)C(Oc2ccc3c(O)c(NC(=O)c4ccc(O)c(CC=C(C)C)c4)c(=O)oc3c2C)OC1(C)C
5. CCc1cc2c(N3CCc4c(cc(Cn5ccnc5)cc4-c4cn(C)nc4C(F)(F)F)C3=O)cc(C)nc2c(OC)n1 + COC1C(OC(N)=O)C(O)C(Oc2ccc3c(O)c(NC(=O)c4ccc(O)c(CC=C(C)C)c4)c(=O)oc3c2C)OC1(C)C
6. O=c1[nH]cc(F)c(=O)[nH]1 + COC1C(OC(N)=O)C(O)C(Oc2ccc3c(O)c(NC(=O)c4ccc(O)c(CC=C(C)C)c4)c(=O)oc3c2C)OC1(C)C

// result
51.4
97.4
98.8
105
152
89

Hi team, please reply with viability, T/C for each item in this list.
1. CNCc1ccc(-c2[nH]c3cc(F)cc4c3c2CCNC4=O)cc1 + Nc1ccc(C#CCN(C(=O)Cc2ncc(C(F)(F)F)cc2C(F)(F)F)c2ccc(F)cc2)nn1
2. CNCc1ccc(-c2[nH]c3cc(F)cc4c3c2CCNC4=O)cc1 + Cc1cccc(N(C)C(=O)C2C(O)CCN2c2nc(C)cc(C(F)(F)F)c2C#N)c1

// result
1. 88.6
2. 89.9

Please report viability, T/C for every entry that follows.
1. COc1cccc2c1C(=O)c1c(O)c3c(c(O)c1C2=O)CC(O)(C(=O)CO)CC3OC1CC(N)C(O)C(C)O1 (centres undefined) + Cc1cccc(N(C)C(=O)C2C(O)CCN2c2nc(C)cc(C(F)(F)F)c2C#N)c1
2. CC[C@@]1(O)C(=O)OCc2c1cc1n(c2=O)Cc2cc3c(CN(C)C)c(O)ccc3nc2-1 + Nc1ccc(C#CCN(C(=O)Cc2ncc(C(F)(F)F)cc2C(F)(F)F)c2ccc(F)cc2)nn1
3. COc1ccc([C@@H](O)c2cc(-c3ncnc4cc(N5CCOCC5)ccc34)c(F)cc2Cl)nn1 + Nc1ccc(C#CCN(C(=O)Cc2ncc(C(F)(F)F)cc2C(F)(F)F)c2ccc(F)cc2)nn1
4. CC1COCCN1c1cc(C2(S(C)(=N)=O)CC2)nc(-c2ccnc3[nH]ccc23)n1 (centres undefined) + Cc1cccc(N(C)C(=O)C2C(O)CCN2c2nc(C)cc(C(F)(F)F)c2C#N)c1
5. C#Cc1c(F)ccc2cc(O)cc(-c3ncc4c(N5CC6CCC(C5)N6)nc(OCC56CCCN5CC(F)C6)nc4c3F)c12 (centres undefined) + COC1C(OC(N)=O)C(O)C(Oc2ccc3c(O)c(NC(=O)c4ccc(O)c(CC=C(C)C)c4)c(=O)oc3c2C)OC1(C)C
6. O=C(Nc1ccc(O)c(NS(=O)(=O)c2ccc(F)cc2)c1)c1ccc(-c2ccccc2)cc1 + Cc1cccc(N(C)C(=O)C2C(O)CCN2c2nc(C)cc(C(F)(F)F)c2C#N)c1

// result
[105, 99.8, 98.1, 81.7, 115, 119]
